# assay.overview: Stability of linkers L1-L4 conjugated to FGF21 (LC-MS)
# Assay type: physicochemical
# applied.conditions: +4° C., 72 hrs
readout.kind: 1 linker (protein+linker) (%)
Give the number; % is assumed, so skip it.

Short answer for L3-FGF21ΔH-A129C: Linker-3 conjugated to FGF21ΔH-A129C protein (Table 4; Table 5 row L3) (conjugate, UniProt Q9NSA1 29-209, looked up, variant H1* A129C, Linker-3 attached) Fibroblast growth factor 21: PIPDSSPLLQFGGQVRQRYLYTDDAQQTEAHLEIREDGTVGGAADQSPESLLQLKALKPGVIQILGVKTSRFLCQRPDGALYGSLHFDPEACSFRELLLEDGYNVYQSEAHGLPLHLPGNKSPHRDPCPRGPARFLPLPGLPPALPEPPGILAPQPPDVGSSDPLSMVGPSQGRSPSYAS : 1 linker (protein+linker) was 43
